# reported IC50; entries follow
Test system: FaDu (human pharyngeal squamous cell carcinoma cell)
assayOverview: Cytotoxicity of compounds to tumor cell lines (MTS, 5 days)
Format: cell-based
runConditions: 120 h
testReadout: IC50 (nM)

INSERT INTO measurements (molecule, qualifiersymbol, testvalue) VALUES
  ('C=C1C[C@@H]2CC[C@@]34C[C@H]5O[C@H]6[C@@H](O3)[C@H]3O[C@H](CC[C@@H]3O[C@H]6[C@H]5O4)CC(=O)C[C@@H]3[C@@H](OC)[C@@H](C[C@H](O)CN(C)C(=O)c4ccccc4)O[C@H]3C[C@H]3O[C@@H](CC[C@@H]1O2)C[C@@H](C)C3=C', '<', 0.005),
  ('C=C1C[C@@H]2CC[C@@]34C[C@H]5O[C@H]6[C@@H](O3)[C@H]3O[C@H](CC[C@@H]3O[C@H]6[C@H]5O4)CC(=O)C[C@@H]3[C@@H](OC)[C@@H](C[C@H](O)CNC(=O)[C@H]4C[C@@H](OC)C4)O[C@H]3C[C@H]3O[C@@H](CC[C@@H]1O2)C[C@@H](C)C3=C', '=', 0.39),
  ('C=C1C[C@@H]2CC[C@@]34C[C@H]5O[C@H]6[C@@H](O3)[C@H]3O[C@H](CC[C@@H]3O[C@H]6[C@H]5O4)CC(=O)C[C@@H]3[C@@H](OC)[C@@H](C[C@H](O)CN(C)C(=O)OCc4ccccc4)O[C@H]3C[C@H]3O[C@@H](CC[C@@H]1O2)C[C@@H](C)C3=C', '<', 0.005),
  ('C=CCOC(=O)N(C)C[C@@H](O)C[C@H]1O[C@H]2C[C@H]3O[C@@H](CC[C@@H]4O[C@@H](CC[C@@]56C[C@H]7O[C@H]8[C@@H](O5)[C@H]5O[C@H](CC[C@@H]5O[C@H]8[C@H]7O6)CC(=O)C[C@@H]2[C@H]1OC)CC4=C)C[C@@H](C)C3=C', '=', 0.01),
  ('C=C1C[C@@H]2CC[C@@]34C[C@H]5O[C@H]6[C@@H](O3)[C@H]3O[C@H](CC[C@@H]3O[C@H]6[C@H]5O4)CC(=O)C[C@@H]3[C@@H](OC)[C@@H](C[C@H](O)CN)O[C@H]3C[C@H]3O[C@@H](CC[C@@H]1O2)C[C@@H](C)C3=C [D-4(eribulin), eribulin]', '=', 0.73),
  ('C=C1C[C@@H]2CC[C@@]34C[C@H]5O[C@H]6[C@@H](O3)[C@H]3O[C@H](CC[C@@H]3O[C@H]6[C@H]5O4)CC(=O)C[C@@H]3[C@@H](OC)[C@@H](C[C@H](O)CN(C)C(=O)OC(C)(C)C)O[C@H]3C[C@H]3O[C@@H](CC[C@@H]1O2)C[C@@H](C)C3=C', '<', 0.005),
  ('C=C1C[C@@H]2CC[C@@]34C[C@H]5O[C@H]6[C@@H](O3)[C@H]3O[C@H](CC[C@@H]3O[C@H]6[C@H]5O4)CC(=O)C[C@@H]3[C@@H](OC)[C@@H](C[C@H](O)CNC)O[C@H]3C[C@H]3O[C@@H](CC[C@@H]1O2)C[C@@H](C)C3=C', '=', 0.37);

###

Test system: FaDu (human pharyngeal squamous cell carcinoma cell)
assayOverview: Cytotoxicity of compounds to tumor cell lines (MTS, 5 days)
Type: cell-based
runConditions: 120 h
testReadout: IC50 (nM)

INSERT INTO results (chemsmiles, unit, testvalue) VALUES
  ('C=C1C[C@@H]2CC[C@@]34C[C@H]5O[C@H]6[C@@H](O3)[C@H]3O[C@H](CC[C@@H]3O[C@H]6[C@H]5O4)CC(=O)C[C@@H]3[C@@H](OC)[C@@H](C[C@H](O)CN(C)C(=O)C(F)F)O[C@H]3C[C@H]3O[C@@H](CC[C@@H]1O2)C[C@@H](C)C3=C', 'nM', 0.33),
  ('C=C1C[C@@H]2CC[C@@]34C[C@H]5O[C@H]6[C@@H](O3)[C@H]3O[C@H](CC[C@@H]3O[C@H]6[C@H]5O4)CC(=O)C[C@@H]3[C@@H](OC)[C@@H](C[C@H](O)CN(C)S(C)(=O)=O)O[C@H]3C[C@H]3O[C@@H](CC[C@@H]1O2)C[C@@H](C)C3=C', 'nM', 0.16);

###

Test system: BxPC-3 (human orthotopic pancreatic adenocarcinoma cell)
assayOverview: Cytotoxicity of compounds to tumor cell lines (MTS, 5 days)
Format: cell-based
runConditions: Homo sapiens, 120 h; BxPC-3, 5 days, MTS
testReadout: IC50 (pM)

INSERT INTO assay_data (chemsmiles, testreadout, unit, qualifiersymbol, testvalue) VALUES
  ('C=C1C[C@@H]2CC[C@@]34C[C@H]5O[C@H]6[C@@H](O3)[C@H]3O[C@H](CC[C@@H]3O[C@H]6[C@H]5O4)CC(=O)C[C@@H]3[C@@H](OC)[C@@H](C[C@H](O)CNC(=O)OC(C)(C)C)O[C@H]3C[C@H]3O[C@@H](CC[C@@H]1O2)C[C@@H](C)C3=C', 'IC50', 'pM', '<', 5),
  ('C=C1C[C@@H]2CC[C@@]34C[C@H]5O[C@H]6[C@@H](O3)[C@H]3O[C@H](CC[C@@H]3O[C@H]6[C@H]5O4)CC(=O)C[C@@H]3[C@@H](OC)[C@@H](C[C@H](O)CN(C)C(=O)OCc4ccccc4)O[C@H]3C[C@H]3O[C@@H](CC[C@@H]1O2)C[C@@H](C)C3=C', 'IC50', 'pM', '<', 5),
  ('C=C1C[C@@H]2CC[C@@]34C[C@H]5O[C@H]6[C@@H](O3)[C@H]3O[C@H](CC[C@@H]3O[C@H]6[C@H]5O4)CC(=O)C[C@@H]3[C@@H](OC)[C@@H](C[C@H](O)CNC(=O)[C@H]4C[C@@H](OC)C4)O[C@H]3C[C@H]3O[C@@H](CC[C@@H]1O2)C[C@@H](C)C3=C', 'IC50', 'pM', '=', 50),
  ('C=C1C[C@@H]2CC[C@@]34C[C@H]5O[C@H]6[C@@H](O3)[C@H]3O[C@H](CC[C@@H]3O[C@H]6[C@H]5O4)CC(=O)C[C@@H]3[C@@H](OC)[C@@H](C[C@H](O)CNC)O[C@H]3C[C@H]3O[C@@H](CC[C@@H]1O2)C[C@@H](C)C3=C', 'IC50', 'pM', '=', 30);

###

Test system: A431(human epidermal carcinoma cells)
assayOverview: Cytotoxicity of compounds to tumor cell lines (MTS, 5 days)
Assay type: cell-based
runConditions: A-431, 120 h, A431, 5 days
# reported IC50; entries follow
testReadout: IC50 (nM)

INSERT INTO assay_data (chemsmiles, qualifiersymbol, testvalue) VALUES
  ('C=C1C[C@@H]2CC[C@@]34C[C@H]5O[C@H]6[C@@H](O3)[C@H]3O[C@H](CC[C@@H]3O[C@H]6[C@H]5O4)CC(=O)C[C@@H]3[C@@H](OC)[C@@H](C[C@H](O)CN(C)C(=O)OCc4ccccc4)O[C@H]3C[C@H]3O[C@@H](CC[C@@H]1O2)C[C@@H](C)C3=C', '<', 0.005),
  ('C=C1C[C@@H]2CC[C@@]34C[C@H]5O[C@H]6[C@@H](O3)[C@H]3O[C@H](CC[C@@H]3O[C@H]6[C@H]5O4)CC(=O)C[C@@H]3[C@@H](OC)[C@@H](C[C@H](O)CN(C)C(=O)c4ccccc4)O[C@H]3C[C@H]3O[C@@H](CC[C@@H]1O2)C[C@@H](C)C3=C', '<', 0.005),
  ('C=C1C[C@@H]2CC[C@@]34C[C@H]5O[C@H]6[C@@H](O3)[C@H]3O[C@H](CC[C@@H]3O[C@H]6[C@H]5O4)CC(=O)C[C@@H]3[C@@H](OC)[C@@H](C[C@H](O)CN(C)C(=O)C(F)F)O[C@H]3C[C@H]3O[C@@H](CC[C@@H]1O2)C[C@@H](C)C3=C', '=', 0.02),
  ('C=C1C[C@@H]2CC[C@@]34C[C@H]5O[C@H]6[C@@H](O3)[C@H]3O[C@H](CC[C@@H]3O[C@H]6[C@H]5O4)CC(=O)C[C@@H]3[C@@H](OC)[C@@H](C[C@H](O)CNC)O[C@H]3C[C@H]3O[C@@H](CC[C@@H]1O2)C[C@@H](C)C3=C', '=', 0.02);

###

# reported IC50; entries follow
Test system: FaDu (human pharyngeal squamous cell carcinoma cell)
assayOverview: Cytotoxicity of compounds to tumor cell lines (MTS, 5 days)
Assay type: cell-based
runConditions: 120 h
testReadout: IC50

INSERT INTO measurements (compound, testvalue) VALUES
  ('C=C1C[C@@H]2CC[C@@]34C[C@H]5O[C@H]6[C@@H](O3)[C@H]3O[C@H](CC[C@@H]3O[C@H]6[C@H]5O4)CC(=O)C[C@@H]3[C@@H](OC)[C@@H](C[C@H](O)CNC(=O)OC(C)(C)C)O[C@H]3C[C@H]3O[C@@H](CC[C@@H]1O2)C[C@@H](C)C3=C [D-13]', '< 0.005 nM'),
  ('C=C1C[C@@H]2CC[C@@]34C[C@H]5O[C@H]6[C@@H](O3)[C@H]3O[C@H](CC[C@@H]3O[C@H]6[C@H]5O4)CC(=O)C[C@@H]3[C@@H](OC)[C@@H](C[C@H](O)CN(C)C(=O)C(C)C)O[C@H]3C[C@H]3O[C@@H](CC[C@@H]1O2)C[C@@H](C)C3=C [D-11]', '0.08 nM'),
  ('C=C1C[C@@H]2CC[C@@]34C[C@H]5O[C@H]6[C@@H](O3)[C@H]3O[C@H](CC[C@@H]3O[C@H]6[C@H]5O4)CC(=O)C[C@@H]3[C@@H](OC)[C@@H](C[C@H](O)CN(C)C(=O)C(C)(C)C)O[C@H]3C[C@H]3O[C@@H](CC[C@@H]1O2)C[C@@H](C)C3=C [D-12]', '< 0.005 nM');
